System: MDA-MB-435
Assay: NCI tumour cell line growth inhibition, 48 h
Activity calls are given as the source filed them. Rule as the data show it: active = GI50 up to about 1.1 µM and inactive = higher.
Collected GI50 values appear next to each entry.

c1cncc(CSc2ncnc3[nH]cnc23)c1
> 100 µM (inactive)

Task: // Input: Cn1c(=O)c2c(ncn2CCCCOc2ccc3c(c2)[n+]([O-])nc(N)[n+]3[O-])n(C)c1=O . Output its GI50 only.
Result: 11.8 µM (inactive)

Task: For CC(=O)O[C@H]1CC[C@H]2[C@@H]3CCC(C(C)=O)[C@H](C(=O)O)[C@H]3CC[C@]12C (some centres undefined) , write its GI50.
Result: > 100 µM (inactive)

Task: Supply GI50 value. Item: CC(C)(C)C(O)CC(O)(C(F)(F)F)C(F)(F)F (centres undefined)
Result: > 100 µM (inactive)

Task: Indicate its recorded GI50; the molecule in question is O[C@H]1[C@H](O)[C@@H](O)[C@H](O)[C@@H](O)[C@H]1O
Result: > 1000 µM (inactive)

---

Test system: UACC-62
Experiment: NCI tumour cell line growth inhibition, 48 h
Activity calls are given as the source filed them. No stated cut-off is given here; in the data, active = GI50 up to about 1.1 µM and inactive = higher.
GI50 values for the compounds below.

Solved entries:
N=C(N)N/N=C/c1c(-c2ccc(N)cc2)nc2sccn12
> 100 µM (inactive)
Cn1cnc(C(N)=[Se])c1N
2 µM (inactive)
COc1cc(OC)cc(Oc2nc3cc(F)c(F)cc3nc2-c2ccccc2)c1
> 100 µM (inactive)
[N-]=[N+]=NCN1C(=O)C2C3C=CC(C2C1=O)C1C2C(=O)N(CN=[N+]=[N-])C(=O)C2C31 (stereo unspecified)
> 100 µM (inactive)
COc1cc(C2S/C(=C/c3ccccc3)C(=O)N2c2cc(Cl)c(Cl)cc2Cl)cc(OC)c1OC (stereo unspecified)
27.5 µM (inactive)

Task: Please report the measured GI50 for CCCCCCCCCC1CC(=O)OC2=C1C(=O)CCC2 (stereo unspecified) tested on UACC-62.
Result: > 100 µM (inactive)

---

Test system: NCI-H23
Test: NCI tumour cell line growth inhibition, 48 h
The source made the active and inactive calls. No stated cut-off is given here; in the data, active = GI50 up to about 1.1 µM and inactive = higher.
Choose one outcome from this list and give only that: yes (1) for active, no (0) for inactive

CNC(=O)NS(=O)(=O)c1ccc(C)cc1.NS(=O)O
no (0)
COc1ccc(C2SC(=N)Nc3c2c(C)nn3C(=O)c2ccccc2O)cc1OC (stereo not given)
no (0)
CCN1/C(=C/C(C)=C/c2sc3ccccc3[n+]2CC)Sc2ccccc21
yes (1)
C=CCSC(C)=O
no (0)
CCOC(=O)NC(Nc1ccc(C)cc1)(C(F)(F)F)C(F)(F)F
no (0)

Task: Lab log entry: N#C/C=C(/NC(=O)Nc1ccccc1)N1CCCC1 — outcome as called in the assay?
Result: no (0)

Task: # fetch the recorded call for CCOC(=O)[C@]12C(=C(c3ccccc3)O[C@H]3C=CCC[C@H]31)C(=O)C(=O)N2c1ccccc1 here
Result: no (0)

Task: Per the records of this test, what outcome belongs to O=C(O)C1CCCN1Cc1cc2ccccc2c2ccccc12 (stereo not given) ?
Result: no (0)

Task: What outcome does the record of this test show for CCOC(=O)n1c(=O)nc2c3c(ncn21)Oc1c(c(-c2ccccc2)nn1-c1ccccc1)C3c1ccc(Cl)cc1 (stereo not given) ?
Result: no (0)

Task: Which outcome was entered for the compound CCN1C/C(=C\c2ccc(Cl)cc2)c2nc(N)c(C#N)c(-c3ccc(Cl)cc3)c2C1 in this test?
Result: no (0)

---

Tested on: PC-3
Assay: NCI tumour cell line growth inhibition, 48 h
The source made the active and inactive calls. Rule as the data show it: active = GI50 up to about 1.1 µM and inactive = higher. Where a SMILES comes first, the peptide text is derived from it. The star is where a group is joined. Cbz = O=C(OCc1ccccc1)*; Boc = CC(C)(C)OC(=O)*; OSu = O=C1CCC(=O)N1O*; Bn = c1ccc(C*)cc1
API: response.call in 1.0 = active, 0.0 = inactive

Please review the following examples before continuing.
NC(=O)c1cc2ccccc2o/c1=N/c1ccccc1
0.0
COc1ccc(C2C3=CONC3CC3CCCCC32)cc1 (centres undefined)
0.0
O=C(O)CN(CC(=O)O)Cc1cc2c(cc1O)Oc1cc(O)c(CN(CC(=O)O)CC(=O)O)cc1C21OC(=O)c2ccccc21
0.0
COc1cc(OC)cc(Oc2nc3cc(F)c(F)cc3nc2-c2ccccc2)c1
0.0
CC1=C(SCCO)C(=O)c2ccccc2C1=O
0.0
COC(=O)[C@H]1ON2O[C@H](OC3CCCC[C@@H]3c3ccccc3)C[C@@H]3CC[C@H]1[C@@]32C (some centres undefined)
0.0
CNC(=O)CCCNC(=O)CCCC(=O)N(C)C
0.0
COC1(OC)C=CC(=O)C=C1
0.0

Task: Answer briefly: the call reported for CC(C)(C)OC(=O)NC(Cc1ccc(OCc2ccccc2)cc1)C(=O)NC(CCCCNC(=O)OCc1ccccc1)C(=O)ON1C(=O)CCC1=O (centres undefined) (Boc-Tyr(Bn)-Lys(Cbz)-OSu; configuration not given here) in this assay.
Result: 0.0

Task: What is the recorded call for this compound in the test? C1CSCCSCCS1
Result: 0.0

Task: Which outcome was assigned to O=c1oc2ccc3ccccc3c2cc1-c1nc2ccccc2s1 in this test?
Result: 0.0

Task: Called result for OC[C@H]1O[C@@H](Oc2cc(O)cc(/C=C/c3ccc(O)cc3)c2)[C@H](O)[C@@H](O)[C@@H]1O
Result: 0.0

Task: Entry CCOP(=O)(CC1CC(O)(CNc2cc(Cl)nc(N)n2)C1)OCC (centres undefined) : call = ?
Result: 0.0

Task: What did the test return for COc1cc(-c2oc3c(OC)c(OC)cc(O)c3c(=O)c2OC)ccc1O ?
Result: 0.0

Task: Could you check what this test reported for Cc1c(C)c(C)c(-n2[nH]c(=O)n(C)c2=O)c(C)c1C ?
Result: 0.0

Task: Which outcome was entered for the compound O[C@H]1[C@H](O)[C@@H](O)[C@H](O)[C@@H](O)[C@H]1O in this test?
Result: 0.0

Task: Hello, I am checking results. What call was entered for Brc1ccc2[nH]cc([C@@H]3CN[C@@H](c4c[nH]c5ccc(Br)cc45)CN3)c2c1 ?
Result: 0.0

Task: Any idea what this test logged for O=Cc1ccc(-c2nccc3c2[nH]c2ccccc23)o1 ?
Result: 0.0

Task: // outcome(item) with item = CCN(CC)Cc1c(/C=C\c2cc(OC)c(OC)c(OC)c2)ccc(OC)c1O
Result: 0.0

Task: # lookup: test call for CC(C)(C)C(O)CC(O)(C(F)(F)F)C(F)(F)F (centres undefined)
Result: 0.0

Task: GET /call?item= Cc1cc2c([nH]c3ccccc32)c(O)c1-c1c(C)cc2c([nH]c3ccccc32)c1O returns the recorded outcome of this test.
Result: 0.0

Task: Kindly provide the recorded test outcome for the following compound: COc1cc(Br)cc2cc(-c3cn4c(n3)sc3ccccc34)c(=O)oc12
Result: 0.0

Task: Please let me know the test result on file for Nc1nc(N)c2nc(CN(C=O)c3ccc(C(=O)O)cc3)cnc2n1 .
Result: 1.0

Task: Hi team, can someone confirm the assay call for COc1ccc(C(=O)c2ccc(-n3c4ccccc4c4ccc5c(c43)C(=O)C=CC5=O)cc2)cc1 ?
Result: 0.0

---

Listed molecules paired with reported GI50
Tested on: LOX IMVI
Assay: NCI tumour cell line growth inhibition, 48 h
Active and inactive are the calls of the source. Rule as the data show it: active = GI50 up to about 1.1 µM and inactive = higher.

Known results for molecules:
Cc1[nH]c(-c2ccccc2)c2nc(N(C)C)oc(=O)c12
> 100 µM (inactive)
Nc1c(S(=O)(=O)O)cc(S(=O)(=O)O)c2ccc(/N=N/c3ccc(/C=C/c4ccc(/N=N/c5ccc6c(S(=O)(=O)O)cc(S(=O)(=O)O)c(N)c6c5O)cc4S(=O)(=O)O)c(S(=O)(=O)O)c3)c(O)c12
> 100 µM (inactive)
CC1=NN(c2cccc(Cl)c2)C2(SCC(=O)N2c2nc3ccccc3s2)/C1=C\c1cccs1 (stereo not drawn)
23.8 µM (inactive)
O=c1oc2c3ccc4ccccc4c3n(Cc3nc4ccccc4[nH]3)c2c2ccccc12
2.26 µM (inactive)
C=CC(=O)c1ccc2c(c1)OCCOCCOCCOCCOCCO2
17.7 µM (inactive)

Task: Specify measured GI50 for CCOC1CN(C)/C(=N\c2cccc3ccccc23)S1 (stereo not drawn) .
Result: > 10 µM (inactive)

Task: Please look at this molecule and report its GI50: CC1(C)[C@@H]2C[C@H]1[C@@H](Cc1cccc(C[C@H]3c4cc(-c5ccccn5)ncc4[C@H]4C[C@@H]3C4(C)C)c1)c1cc(-c3ccccn3)ncc12
Result: 1.75 µM (inactive)

Task: For the molecule [N-]=[N+]=NC1C2CC3C4CC5CC3[C@H](C2)C(C5)C41 (stereo partly drawn) , give its measured GI50 value.
Result: > 100 µM (inactive)

---

Overview of reported GI50 across a group of molecules:
Tested on: OVCAR-5
Assay: NCI tumour cell line growth inhibition, 48 h
The source made the active and inactive calls. No stated cut-off is given here; in the data, active = GI50 up to about 1.1 µM and inactive = higher.

Task: Report measured GI50; entry is O=C1c2ccccc2C(=O)N1C/C=N/NS(=O)(=O)c1ccc(Br)cc1
Result: > 100 µM (inactive)

Task: Provide GI50 value for the following molecule: COc1ccc(C(=O)c2ccc(-n3c4ccccc4c4ccc5c(c43)C(=O)C=CC5=O)cc2)cc1
Result: 19.5 µM (inactive)

Task: State its GI50 for this molecule: C[N+](C)(C)CC1CCCc2ccccc2C1=O (stereo unspecified)
Result: 13.3 µM (inactive)
